Sourced from patent US20260327191A1

# tested target: GSK3B (Homo sapiens)
# Sequence (P49841 whole entry): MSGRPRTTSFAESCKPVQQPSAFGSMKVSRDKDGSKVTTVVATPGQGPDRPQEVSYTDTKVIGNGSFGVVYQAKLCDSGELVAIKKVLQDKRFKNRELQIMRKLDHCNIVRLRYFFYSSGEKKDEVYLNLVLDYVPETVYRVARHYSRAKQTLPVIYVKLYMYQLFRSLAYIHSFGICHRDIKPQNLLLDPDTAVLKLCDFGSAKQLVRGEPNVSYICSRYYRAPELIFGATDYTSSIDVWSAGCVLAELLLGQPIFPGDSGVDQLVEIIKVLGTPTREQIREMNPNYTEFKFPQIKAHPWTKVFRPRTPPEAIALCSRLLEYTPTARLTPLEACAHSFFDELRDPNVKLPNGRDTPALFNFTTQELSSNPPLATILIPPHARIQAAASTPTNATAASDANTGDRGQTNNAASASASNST
# assay text: In vitro enzymatic activity assay, GSK3β
# Type: biochemical
# Parameters: Full length human GSK3α or GSK3B expressed as N-terminal GST fusion proteins; GST (N); purchased Carna Biosciences (Japan); host or cells: baculovirus host
# particulars: 1.0 mM ATP, 1.0 μM peptide substrate, 120 min, 25° C, read-out: Enzyme GSK3β (IC50)
# strict inequality: IC50 < 600 nM yields 1, everything else yields -1

>  <molecule>
Cc1cc(C(F)F)cc(C)c1-n1cnc(N)c(C(=O)Nc2cncc(C3CCCC(C)N3)c2)c1=O (single isomer, unassigned) [Example 107]

>  <cat>
-1

$$$$
>  <molecule>
Nc1ncn(-c2c(Cl)cncc2Cl)c(=O)c1C(=O)Nc1cncc([C@H]2CCCCN2)c1 [Example 152]

>  <cat>
1

$$$$
>  <molecule>
Nc1ncn(-c2c(Cl)cc(N3CCC3)cc2Cl)c(=O)c1C(=O)Nc1cncc([C@@H]2CCCCN2)c1 [Example 209]

>  <cat>
1

$$$$
>  <molecule>
Nc1ncn(-c2c(Cl)cccc2Cl)c(=O)c1C(=O)Nc1cccc(C2CCCN2)c1F (single isomer, unassigned) [Example 168]

>  <cat>
-1

$$$$
>  <molecule>
CCOc1cc(Cl)c(-n2cnc(N)c(C(=O)Nc3cncc(C4(N)CCC4)c3)c2=O)c(Cl)c1 [Example 183]

>  <cat>
1

$$$$
>  <molecule>
COc1cc(Cl)c(-n2cnc(N)c(C(=O)Nc3cncc([C@H]4CCC[C@H](C)N4)c3)c2=O)c(Cl)c1 (single isomer, unassigned) [Example 84]

>  <cat>
1

$$$$
